target.under.test: T1, CRBN, Q96SW2;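 note: pooled lentiviral library of zinc finger degron-EGFP fusions in mCherry-positive Jurkat cells, FACS-sorted after compound exposure, with degron abundance counted by next-generation sequencing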
T1 chain: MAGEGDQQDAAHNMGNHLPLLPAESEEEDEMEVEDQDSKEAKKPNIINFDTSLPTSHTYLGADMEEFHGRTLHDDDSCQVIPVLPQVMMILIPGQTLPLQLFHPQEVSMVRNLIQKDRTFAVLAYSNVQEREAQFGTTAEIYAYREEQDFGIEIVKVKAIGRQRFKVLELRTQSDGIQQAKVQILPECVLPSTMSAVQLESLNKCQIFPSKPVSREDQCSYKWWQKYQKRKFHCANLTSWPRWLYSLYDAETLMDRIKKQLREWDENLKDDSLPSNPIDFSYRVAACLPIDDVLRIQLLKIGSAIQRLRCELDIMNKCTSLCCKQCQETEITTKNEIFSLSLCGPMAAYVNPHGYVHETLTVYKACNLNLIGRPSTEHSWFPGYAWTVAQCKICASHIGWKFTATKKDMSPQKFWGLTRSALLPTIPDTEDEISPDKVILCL
test.method.notes: log2 fold change of degron read counts, EGFP-low vs EGFP+ sorted cells (limma voom), compound-induced degradation; higher = more compound-induced degradation of the degron-EGFP fusion; degrons are variants of IKZF1/3 zinc finger 2; compound dose not given here
measurement.context: Jurkat; 18 h; compound: thalidomide
In all, about 8,300 sequences were measured (“log2 fold change of degron read counts, EGFP-low vs EGFP+ sorted cells (limma voom), compound-induced degradation”: median about -1.1, highest 2% from about 3.2 on). The sample holds the highest values, similar sequences and a random draw of the others, so the mix is not that of the screen.
For each record, write down the corresponding log2 fold change of degron read counts.
// response body must contain only the number

Request: Quick one: log2 fold change of degron read counts for FECEICGARFTQKGNLLRHIKL [46F_47E_49E_50I_52G_53A_54R_55F_67L_, Q9UKT9] ?
Response: 3.55

Request: Ok, now FACEICGAPFTQKGNLLRHIKL [46F_47A_49E_50I_52G_53A_54P_55F_67L_, Q9UKT9]
Response: 1.72

Request: // repeat for FECEICGAPFTQKGNLLRHIKL [46F_47E_49E_50I_52G_53A_54P_55F_67L_, Q9UKT9] and report
Response: 2.07

Request: Try this sequence next: FWCPQCGAKFTQKGNLLRHIKL [46F_47W_49P_50Q_52G_53A_54K_55F_67L_, Q9UKT9]
Response: -0.258

Request: Next: FICEVCGACFTQKGNLLRHIKL [46F_47I_49E_50V_52G_53A_54C_55F_67L_, Q9UKT9]
Response: 2.75

Request: What would you report for FYCDQCGAEFTQKGNLLRHIKL [46F_47Y_49D_50Q_52G_53A_54E_55F_67L_, Q9UKT9] ?
Response: -3.08

Request: Now try FCCEICGAFFTQKGNLLRHIKL [46F_47C_49E_50I_52G_53A_54F_55F_67L_, Q9UKT9] .
Response: -0.2

Request: Same for FWCNQCGRQFTQKGNLLRHIKL [46F_47W_49N_50Q_52G_53R_54Q_55F_67L_, Q9UKT9]
Response: -1.87

Request: Another sequence to check: LECEICGFACTQKGNLLRHIKL [46L_47E_49E_50I_52G_53F_54A_55C_67L_, Q9UKT9]
Response: 1.55

Request: Again, but for LGCEICGFACTQKGNLLRHIKL [46L_47G_49E_50I_52G_53F_54A_55C_67L_, Q9UKT9]
Response: -0.556

Request: And for FTCEICGARFTQKGNLLRHIKL [46F_47T_49E_50I_52G_53A_54R_55F_67L_, Q9UKT9] ?
Response: 3.23

Request: // same read-out, input: FHCEICGADFTQKGNLLRHIKL [46F_47H_49E_50I_52G_53A_54D_55F_67L_, Q9UKT9]
Response: -2.34

Request: Then this sequence: FKCDQCGAQFTQKGNLLRHIKL [46F_47K_49D_50Q_52G_53A_54Q_55F_67L_, Q9UKT9]
Response: -3.16

Request: For FDCNQCGHAFTQKGNLLRHIKL [46F_47D_49N_50Q_52G_53H_54A_55F_67L_, Q9UKT9] then?
Response: -2.94

Request: Proceed to FECEICGALFTQKGNLLRHIKL [46F_47E_49E_50I_52G_53A_54L_55F_67L_, Q9UKT9]
Response: 1.34

Request: And for FECPQCGAKFTQKGNLLRHIKL [46F_47E_49P_50Q_52G_53A_54K_55F_67L_, Q9UKT9] ?
Response: 0.127

The reported measurements were obtained from the supplement of paper PMC12645437.
